Target: human P2X4 receptor (Homo sapiens (Human), UniProt Q99571)
Sequence (Q99571 whole entry): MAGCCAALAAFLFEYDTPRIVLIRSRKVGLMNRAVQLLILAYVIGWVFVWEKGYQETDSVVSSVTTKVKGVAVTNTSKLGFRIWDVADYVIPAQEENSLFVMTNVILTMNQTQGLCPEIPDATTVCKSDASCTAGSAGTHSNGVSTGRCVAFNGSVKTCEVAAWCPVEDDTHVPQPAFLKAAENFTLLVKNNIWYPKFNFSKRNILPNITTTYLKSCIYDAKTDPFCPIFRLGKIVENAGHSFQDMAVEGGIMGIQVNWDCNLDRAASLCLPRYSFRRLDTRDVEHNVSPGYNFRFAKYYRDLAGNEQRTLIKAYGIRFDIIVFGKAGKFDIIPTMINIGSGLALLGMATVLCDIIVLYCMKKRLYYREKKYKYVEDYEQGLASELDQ
Assay: P2X4 receptor antagonist activity (ATP-induced intracellular calcium, Fura-2 AM)
Details: 1321N1 cells stably expressing human P2X4 receptor; test substance 15 minutes before addition of ATP; Fura-2 AM F340/F380; read-out: Inhibitory activity IC50
Structures can show the parent of a compound that is named as a salt.
Collected IC50 values appear next to each entry.

{"molecule": "O=C1CC(=O)N(c2ccc(-n3ccnc3CCc3ccccn3)cc2)c2ccc3ccccc3c2N1 [Example 71, dihydrochloride]", "IC50 [nM]": 590}
{"molecule": "COc1ccccc1-c1nccn1-c1ccc(N2C(=O)CC(=O)Nc3c2ccc2ccccc32)cc1", "IC50 [nM]": 1700}
{"molecule": "O=C1CC(=O)N(c2ccc(-c3nccn3Cc3ccc(Cl)cc3)cc2)c2ccc3ccccc3c2N1 [Example 23, hydrochloride]", "IC50 [nM]": 300}
{"molecule": "COc1ccccc1CCc1nccn1-c1ccc(N2C(=O)CC(=O)Nc3c2ccc2ccccc32)cc1 [Example 32, hydrochloride]", "IC50 [nM]": 180}
{"molecule": "COc1cccc(CCc2nccn2-c2ccc(N3C(=O)CC(=O)Nc4c3ccc3c4CCC3)cc2)c1 [Example 61, hydrochloride]", "IC50 [nM]": 74}
{"molecule": "O=C1CC(=O)N(c2ccc(-n3ccnc3CCc3ccsc3)cc2)c2ccc3ccccc3c2N1 [Example 62, hydrochloride]", "IC50 [nM]": 88}
{"molecule": "O=C1CN=C(c2ccc(-n3ccnc3CCc3ccccc3)cc2)c2ccc3ccccc3c2N1 [Example 41, dihydrochloride]", "IC50 [nM]": 650}

* * *

Target: human P2X4 receptor (Homo sapiens (Human))
Test: P2X4 receptor antagonist activity (ATP-induced intracellular calcium, Fura-2 AM)
Conditions: 1321N1 cells stably expressing human P2X4 receptor; test substance 15 minutes before addition of ATP; Fura-2 AM F340/F380; read-out: Inhibitory activity IC50
Structures can show the parent of a compound that is named as a salt.
I'd appreciate it if you marked entries T when IC50 is lower than 40 nM and F when it is not.

{"molecule": "O=C1CC(=O)N(c2ccc(-n3nnnc3CCc3ccccc3)cc2)c2ccc3ccccc3c2N1", "className": "F"}
{"molecule": "O=C1CC(=O)N(c2ccc(-n3nnnc3Cc3ccccc3O)cc2)c2ccc3ccccc3c2N1", "className": "T"}
{"molecule": "O=C1CC(=O)N(c2ccc(-c3nc[nH]c3-c3ccccc3)cc2)c2ccc3ccccc3c2N1 [Example 72, hydrochloride]", "className": "F"}
{"molecule": "Cl.O=C1CC(=O)N(c2ccc(-n3ccnc3CCc3ccccc3)cc2)c2ccc3ccccc3c2N1 [Example 21, hydrochloride]", "className": "F"}
{"molecule": "COc1cccc(CCn2ccnc2-c2ccc(N3C(=O)CC(=O)Nc4c3ccc3ccccc43)cc2)c1", "className": "F"}
{"molecule": "COc1ccccc1Cc1nnnn1-c1ccc(N2C(=O)CC(=O)Nc3c2ccc2ccccc32)cc1", "className": "T"}
{"molecule": "COc1c(F)cccc1CCc1nccn1-c1ccc(N2C(=O)CC(=O)Nc3c2ccc2ccccc32)cc1 [Example 83, hydrochloride]", "className": "F"}

* * *

Target: human P2X4 receptor (Homo sapiens (Human))
Test: P2X4 receptor antagonist activity (ATP-induced intracellular calcium, Fura-2 AM)
Settings: 1321N1 cells stably expressing human P2X4 receptor; test substance 15 minutes before addition of ATP; Fura-2 AM F340/F380; read-out: Inhibitory activity IC50
pIC50: −log10 of the molar value. Counter-ions that a name gives are not always drawn.
Collected pIC50 values appear next to each entry.

{"compound": "COc1cc(N2C(=O)CC(=O)Nc3c2ccc2ccccc32)ccc1-c1nccn1CCc1ccccc1 [Example 64]", "pIC50": 6.28}
{"compound": "O=C1CC(=O)N(c2ccc(-n3ccnc3COc3ccccc3)cc2)c2ccc3ccccc3c2N1 [Example 68]", "pIC50": 6.10}
{"compound": "Cc1cccc(CCc2nnnn2-c2ccc(N3C(=O)CC(=O)Nc4c3ccc3ccccc43)cc2)n1 [Example 30, hydrochloride]", "pIC50": 6.57}
{"compound": "NC(=O)c1ccccc1CCc1nccn1-c1ccc(N2C(=O)CC(=O)Nc3c2ccc2ccccc32)cc1 [Example 55]", "pIC50": 6.47}
